Listed below: pKi values for each entry.
Target: UniProtKB P41144
Test: biochemical
Lab note: report pKi as minus log10 of the concentration in molar units, number only.

compound	value-observed
Oc1ccc2c3c1O[C@H]1c4[nH]c5ccccc5c4C[C@@]4(O)C(C2)N(CC2CC2)CC[C@]314 [1, NTI, reference compound]	8.05

Field: next compound
Annotate the compound `CN1CC[C@]23c4c5ccc(O)c4O[C@H]2c2ncc(-c4ccc(Cl)cc4)cc2C[C@@]3(O)[C@H]1C5` with its measured pKi. 6.12

###

Target: μ receptor (Cavia porcellus, UniProt A0ACM8Q262)
Sequence (A0ACM8Q262 1-400): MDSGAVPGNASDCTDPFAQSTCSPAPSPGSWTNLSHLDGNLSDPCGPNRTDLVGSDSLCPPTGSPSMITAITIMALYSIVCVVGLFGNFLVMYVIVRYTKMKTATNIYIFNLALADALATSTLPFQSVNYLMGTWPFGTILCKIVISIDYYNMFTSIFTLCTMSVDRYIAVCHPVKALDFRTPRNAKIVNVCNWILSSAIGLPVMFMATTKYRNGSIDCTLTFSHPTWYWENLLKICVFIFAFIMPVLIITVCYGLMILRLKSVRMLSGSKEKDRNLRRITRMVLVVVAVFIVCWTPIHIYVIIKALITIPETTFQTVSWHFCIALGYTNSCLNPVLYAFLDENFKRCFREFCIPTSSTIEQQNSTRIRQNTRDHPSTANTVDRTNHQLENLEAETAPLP
Experiment: biochemical
Conditions: read-out: agonist activity Emax % μ
measure-name: Emax (%)
Just the number in %, nothing appended.

Please review the following examples before continuing.
compound	unit-of-measure	Emax
CN1CC[C@]23c4c5ccc(O)c4O[C@H]2c2ncccc2C[C@@]3(O)[C@H]1C5	%	40
CN1CC[C@]23c4c5ccc(O)c4O[C@H]2c2ncc(-c4ccccc4)cc2C[C@@]3(O)[C@H]1C5	%	27
CN1CC[C@]23c4c5ccc(O)c4O[C@H]2c2ncc(-c4ccc(Cl)c(Cl)c4)cc2C[C@H]3[C@H]1C5	%	63
CN1CC[C@]23c4c5ccc(O)c4O[C@H]2c2ncc(-c4ccc(Cl)cc4)cc2C[C@H]3[C@H]1C5	%	48
CN1CC[C@]23c4c5ccc(O)c4O[C@H]2c2ncc(-c4ccc(Cl)cc4Cl)cc2C[C@H]3[C@H]1C5	%	51

Annotate the compound C[C@@H](NC(=O)[C@@H](N)Cc1ccc(O)cc1)C(=O)NCC(=O)N(C)[C@@H](Cc1ccccc1)C(=O)NCCO [DAMGO, reference compound] with its measured Emax. 100

Annotate the compound `CN1CC[C@]23c4c5ccc(O)c4O[C@H]2c2ncc(-c4ccccc4)cc2C[C@H]3[C@H]1C5` with its measured Emax. 60

Annotate the compound `CN1CC[C@]23c4c5ccc(O)c4O[C@H]2c2ncc(-c4ccc(Br)cc4)cc2C[C@H]3[C@H]1C5` with its measured Emax. 59

Annotate the compound `CN1CC[C@]23c4c5ccc(O)c4O[C@H]2c2ncccc2C[C@H]3[C@H]1C5` with its measured Emax. 44

###

Target: δ receptor (mouse vas deferens) (Mus musculus, UniProt P32300)
Sequence (P32300 whole entry): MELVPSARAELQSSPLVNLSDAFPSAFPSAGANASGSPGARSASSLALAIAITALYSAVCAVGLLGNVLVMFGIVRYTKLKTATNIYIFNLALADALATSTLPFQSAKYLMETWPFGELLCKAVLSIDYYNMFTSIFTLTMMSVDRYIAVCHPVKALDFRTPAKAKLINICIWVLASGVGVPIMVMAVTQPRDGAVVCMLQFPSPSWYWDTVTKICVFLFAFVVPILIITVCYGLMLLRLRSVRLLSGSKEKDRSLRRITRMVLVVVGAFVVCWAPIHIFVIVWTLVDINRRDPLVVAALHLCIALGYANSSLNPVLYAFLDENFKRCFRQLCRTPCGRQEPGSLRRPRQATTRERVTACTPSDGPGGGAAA
Experiment: Mouse vas deferens (MVD) smooth muscle bioassay
Parameters: from tissue; host or cells: mouse vas deferens (male ICR mice)
Listed below: Kb values for each entry.
Just the number in nM, nothing appended.

smiles-structure	value-observed
CN1CC[C@]23c4c5ccc(O)c4O[C@H]2c2ncc(-c4ccc(Cl)cc4Cl)cc2C[C@H]3[C@H]1C5	5.02
CN1CC[C@]23c4c5ccc(O)c4O[C@H]2c2ncc(-c4ccc(Cl)cc4)cc2C[C@@]3(O)[C@H]1C5	38.2
CN1CC[C@]23c4c5ccc(O)c4O[C@H]2c2ncc(-c4ccc(Cl)cc4)cc2C[C@H]3[C@H]1C5	21.9
Oc1ccc2c3c1O[C@H]1c4ncc(-c5ccc(Cl)cc5)cc4C[C@H]4[C@@H](C2)N(CC2CC2)CC[C@]314	6

Field: next molecule
Annotate the molecule `CN1CC[C@]23c4c5ccc(O)c4O[C@H]2c2ncc(-c4ccc(Br)cc4)cc2C[C@H]3[C@H]1C5` with its measured Kb. 20

###

Biological target: opioid μ receptor (Rattus norvegicus)
Sequence (P33535 whole entry): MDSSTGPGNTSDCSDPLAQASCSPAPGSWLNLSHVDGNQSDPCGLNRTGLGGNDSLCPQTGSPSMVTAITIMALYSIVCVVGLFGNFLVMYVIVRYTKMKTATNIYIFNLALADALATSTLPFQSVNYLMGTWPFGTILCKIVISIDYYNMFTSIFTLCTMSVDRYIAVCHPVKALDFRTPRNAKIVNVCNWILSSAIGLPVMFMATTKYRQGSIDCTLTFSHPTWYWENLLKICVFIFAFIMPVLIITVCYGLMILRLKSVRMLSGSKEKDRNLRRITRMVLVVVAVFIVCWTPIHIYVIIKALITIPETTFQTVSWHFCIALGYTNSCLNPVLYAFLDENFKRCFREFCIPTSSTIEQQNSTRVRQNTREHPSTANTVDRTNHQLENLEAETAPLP
Details: read-out: Ki (nM) ± SEM μ; displacement of [3H]DAMGO (1.4-3.0 nM), rat brain membranes
measure-name: Ki (nM)
Just the number in nM, nothing appended.

Please review the following examples before continuing.
smiles-structure	system-under-test	Ki / nM
CN1CC[C@]23c4c5ccc(O)c4O[C@H]2c2ncccc2C[C@H]3[C@H]1C5	opioid μ receptor (Rattus norvegicus)	13
CN1CC[C@]23c4c5ccc(O)c4O[C@H]2c2ncc(-c4ccc(Cl)cc4Cl)cc2C[C@H]3[C@H]1C5	opioid μ receptor (Rattus norvegicus)	97
CN1CC[C@]23c4c5ccc(O)c4O[C@H]2c2ncc(-c4ccccc4)cc2C[C@@]3(O)[C@H]1C5	opioid μ receptor (Rattus norvegicus)	26

Provide opioid μ receptor (Rattus norvegicus) Ki reading for `CN1CC[C@]23c4c5ccc(O)c4O[C@H]2c2ncc(-c4ccc(Cl)c(Cl)c4)cc2C[C@H]3[C@H]1C5` . 93

Provide opioid μ receptor (Rattus norvegicus) Ki reading for `CN1CC[C@]23c4c5ccc(O)c4O[C@H]2c2ncc(-c4ccc(Br)cc4)cc2C[C@H]3[C@H]1C5` . 200

Provide opioid μ receptor (Rattus norvegicus) Ki reading for `CN1CC[C@]23c4c5ccc(O)c4O[C@H]2c2ncc(-c4ccccc4)cc2C[C@H]3[C@H]1C5` . 24

Provide opioid μ receptor (Rattus norvegicus) Ki reading for `CN1CC[C@]23c4c5ccc(O)c4O[C@H]2c2ncc(-c4ccc(Cl)cc4)cc2C[C@@]3(O)[C@H]1C5` . 230

###

Listed below: EC50 values for each entry.
Molecular target: UniProtKB A0ACM8Q262
Conditions: read-out: agonist activity EC50 (nM ± SD) μ; δ and κ sites blocked with TIPP (1 μM) and nor-BNI (6 nM)
Just the number in nM, nothing appended.

molecule	system-under-test	EC50 / nM
CN1CC[C@]23c4c5ccc(O)c4O[C@H]2c2ncccc2C[C@H]3[C@H]1C5	UniProtKB A0ACM8Q262	502

Field: next molecule
Annotate the molecule C[C@@H](NC(=O)[C@@H](N)Cc1ccc(O)cc1)C(=O)NCC(=O)N(C)[C@@H](Cc1ccccc1)C(=O)NCCO [DAMGO, reference compound] with its measured EC50. 414

###

Listed below: Ki values for each entry.
Biological target: opioid δ receptor (Rattus norvegicus, UniProt P33533)
Construct: Rat membranes are prepared each day using a partially thawed frozen rat brain; from tissue; host or cells: rat brain membranes
Sequence (P33533 whole entry): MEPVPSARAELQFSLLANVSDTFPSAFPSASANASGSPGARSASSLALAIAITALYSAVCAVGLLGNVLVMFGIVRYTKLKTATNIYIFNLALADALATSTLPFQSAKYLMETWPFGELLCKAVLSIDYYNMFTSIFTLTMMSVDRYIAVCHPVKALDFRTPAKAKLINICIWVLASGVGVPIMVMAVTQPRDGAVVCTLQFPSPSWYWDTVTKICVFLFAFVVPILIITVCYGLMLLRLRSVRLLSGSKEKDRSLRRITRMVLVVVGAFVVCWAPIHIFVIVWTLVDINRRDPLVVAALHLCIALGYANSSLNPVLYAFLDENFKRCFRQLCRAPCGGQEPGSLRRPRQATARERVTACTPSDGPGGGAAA
Test: Opioid δ receptor binding, [3H]DADLE displacement in rat brain membranes
Settings: displacement of [3H]DADLE (1.3-2.0 nM), rat brain membranes, 100 nM DAMGO to block μ sites; read-out: Ki (nM) ± SEM δ
Just the number in nM, nothing appended.

compound	Ki [nM]
CN1CC[C@]23c4c5ccc(O)c4O[C@H]2c2ncc(-c4ccccc4)cc2C[C@H]3[C@H]1C5 [7g]	1.9

Annotate the compound CN1CC[C@]23c4c5ccc(O)c4O[C@H]2c2ncc(-c4ccc(Cl)cc4)cc2C[C@H]3[C@H]1C5 [7h] with its measured Ki. 4.4

Annotate the compound CN1CC[C@]23c4c5ccc(O)c4O[C@H]2c2ncc(-c4ccc(Cl)c(Cl)c4)cc2C[C@H]3[C@H]1C5 [7j] with its measured Ki. 3.7

Annotate the compound CN1CC[C@]23c4c5ccc(O)c4O[C@H]2c2ncc(-c4ccc(Cl)cc4Cl)cc2C[C@H]3[C@H]1C5 [7k] with its measured Ki. 1.1

Annotate the compound COc1ccc2c3c1O[C@H]1c4ncc(-c5ccc(Cl)cc5)cc4C[C@@]4(O)[C@@H](C2)N(C)CC[C@]314 [7o] with its measured Ki. 21

Annotate the compound CN1CC[C@]23c4c5ccc(O)c4O[C@H]2c2ncc(-c4ccc(Br)cc4)cc2C[C@H]3[C@H]1C5 [7i] with its measured Ki. 5

Annotate the compound CN1CC[C@]23c4c5ccc(O)c4O[C@H]2c2ncccc2C[C@@]3(O)[C@H]1C5 [7b] with its measured Ki. 18

###

Biological target: κ receptor (Cavia porcellus, UniProt P41144)
measure-name: pIC50
Lab note: report pIC50 as minus log10 of the concentration in molar units, number only.

Annotate the compound CN1CC[C@]23c4c5ccc(O)c4O[C@H]2c2ncc(-c4ccc(Cl)c(Cl)c4)cc2C[C@H]3[C@H]1C5 [7j] with its measured pIC50. 5.32

###

Listed below: A50 values for each entry.
Test system: mice
Experiment: 55° C. tail-flick antinociception test in mice
Conditions: icv, mouse tail-flick, at time of peak drug effect
Just the number in nmol, nothing appended.

Please review the following examples before continuing.
compound	system-under-test	A50, nmol
CN1CC[C@]23c4c5ccc(O)c4O[C@H]2[C@@H](O)C=C[C@H]3[C@H]1C5 [Morphine, reference compound]	mice	4.2
CN1CC[C@]23c4c5ccc(O)c4O[C@H]2c2ncc(-c4ccc(Cl)cc4)cc2C[C@H]3[C@H]1C5	mice	42.8
CN1CC[C@]23c4c5ccc(O)c4O[C@H]2c2ncc(-c4ccc(Br)cc4)cc2C[C@H]3[C@H]1C5	mice	47.2

Provide mice A50 reading for `CN1CC[C@]23c4c5ccc(O)c4O[C@H]2c2ncccc2C[C@@]3(O)[C@H]1C5` . 67.1

###

Target: δ receptor (Cavia porcellus, UniProt A0A286XTF2)
Sequence (A0A286XTF2 1-366): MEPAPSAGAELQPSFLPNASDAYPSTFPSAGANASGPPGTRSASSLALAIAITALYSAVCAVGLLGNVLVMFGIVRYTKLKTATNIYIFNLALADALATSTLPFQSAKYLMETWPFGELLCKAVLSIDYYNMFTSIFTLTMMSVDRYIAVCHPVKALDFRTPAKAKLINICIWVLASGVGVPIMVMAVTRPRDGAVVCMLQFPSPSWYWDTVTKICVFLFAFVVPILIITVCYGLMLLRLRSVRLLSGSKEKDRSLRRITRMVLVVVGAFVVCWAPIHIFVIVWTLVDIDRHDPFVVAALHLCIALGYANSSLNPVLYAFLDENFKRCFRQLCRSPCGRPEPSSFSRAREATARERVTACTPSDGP
Test: biochemical
measure-name: pEC50
Lab note: report pEC50 as minus log10 of the concentration in molar units, number only.

Provide δ receptor (Cavia porcellus, UniProt A0A286XTF2) pEC50 reading for C=CCN1C[C@H](C)N([C@H](c2ccc(C(=O)N(CC)CC)cc2)c2cccc(OC)c2)C[C@H]1C [SNC80, reference compound] . 6.12

###

Listed below: Ki values for each entry.
Target: opioid κ receptor (Cavia porcellus, UniProt P41144)
Sequence (P41144 whole entry): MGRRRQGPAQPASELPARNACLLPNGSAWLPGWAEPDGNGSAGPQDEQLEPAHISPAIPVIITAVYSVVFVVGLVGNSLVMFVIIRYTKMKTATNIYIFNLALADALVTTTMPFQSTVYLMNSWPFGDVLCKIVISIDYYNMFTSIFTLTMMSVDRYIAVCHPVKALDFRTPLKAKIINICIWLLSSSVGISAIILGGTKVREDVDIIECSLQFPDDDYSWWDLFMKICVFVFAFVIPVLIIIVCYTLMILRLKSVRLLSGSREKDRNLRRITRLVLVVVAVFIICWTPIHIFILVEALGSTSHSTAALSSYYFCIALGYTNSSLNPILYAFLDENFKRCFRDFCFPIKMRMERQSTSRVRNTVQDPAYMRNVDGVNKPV
Conditions: read-out: Ki (nM) ± SEM κ; displacement of [3H]U69,593 (1.2-[…]), guinea pig brain membranes
Just the number in nM, nothing appended.

molecule	system-under-test	measure-name	value-observed
CN1CC[C@]23c4c5ccc(O)c4O[C@H]2c2ncc(-c4ccccc4)cc2C[C@H]3[C@H]1C5 [7g]	opioid κ receptor (Cavia porcellus, UniProt P41144)	Ki	81
CN1CC[C@]23c4c5ccc(O)c4O[C@H]2c2ncc(-c4ccc(Cl)c(Cl)c4)cc2C[C@H]3[C@H]1C5 [7j]	opioid κ receptor (Cavia porcellus, UniProt P41144)	Ki	278
CN1CC[C@]23c4c5ccc(O)c4O[C@H]2c2ncc(-c4ccc(Br)cc4)cc2C[C@H]3[C@H]1C5 [7i]	opioid κ receptor (Cavia porcellus, UniProt P41144)	Ki	91
Oc1ccc2c3c1O[C@H]1c4ncc(-c5ccc(Cl)cc5)cc4C[C@H]4[C@@H](C2)N(CC2CC2)CC[C@]314 [7l]	opioid κ receptor (Cavia porcellus, UniProt P41144)	Ki	6
CN1CC[C@]23c4c5ccc(O)c4O[C@H]2c2ncc(-c4ccc(Cl)cc4)cc2C[C@H]3[C@H]1C5 [7h]	opioid κ receptor (Cavia porcellus, UniProt P41144)	Ki	78

Provide opioid κ receptor (Cavia porcellus, UniProt P41144) Ki reading for CN1CC[C@]23c4c5ccc(O)c4O[C@H]2c2ncccc2C[C@H]3[C@H]1C5 [7f] . 66

Just for reference, patent US7541364B2 is where these values come from.
